# ASSAY REMARKS: Solvent scope of N,N′-dialkylaldaramides (1%) or N,N′-dialkylpentaramides (1%): gelation/solubility behaviour in solvents
# Assay type: physicochemical
# Parameters: key: g = gelation; s = soluble; p = precipitates; c = crystallizes; ns = not soluble; v = viscous; g* = unstable gel, precipitates; cg = crystalline gel
# EXPERIMENTAL CONTEXT: 1% gelling agent; 2-propanol
PROPERTY: Gelation/solubility behaviour in 2-propanol

COMPOUND: CCCCCCCCNC(=O)[C@@H](O)[C@@H](O)[C@H](O)[C@H](O)C(=O)NCCCCCCCC [Example 9, dioctyl D-mannaramide]
TEST RESULT: c
--
COMPOUND: O=C(NC1CCCCCCCCCCC1)[C@@H](O)[C@H](O)[C@H](O)[C@@H](O)C(=O)NC1CCCCCCCCCCC1 [Example 17, dicyclododecyl galactaramide]
TEST RESULT: ns
--
COMPOUND: CCCCCCCCCCCCNC(=O)[C@@H](O)[C@@H](O)[C@H](O)[C@H](O)C(=O)NCCCCCCCCCCCC [Example 13, didodecyl D-mannaramide]
TEST RESULT: c
--
COMPOUND: CO[C@@H]([C@H](O)[C@H](O)C(=O)NC1CCCCCCCCCCC1)[C@@H](O)C(=O)NC1CCCCCCCCCCC1 [Example 22, 3-O-methyl-dicyclododecyl D-glucaramide]
TEST RESULT: p
--
COMPOUND: CCCCCCCCCCCCNC(=O)[C@@H](O)[C@@H](O)[C@H](O)[C@@H](O)C(=O)NCCCCCCCCCCCC [Example 12, didodecyl D-glucaramide]
TEST RESULT: ns

Switching to the query record.
Value lookup for Gelation/solubility behaviour in 2-propanol; key = CCCCCCCCNC(=O)[C@@H](O)[C@@H](O)[C@H](O)[C@@H](O)C(=O)NCCCCCCCC [Example 8, dioctyl D-glucaramide]
c
